REPORTED ENDPOINT: boiling point (°C)
Your answer should be a plain number; it is taken to be in °C.

Any idea what its boiling point is? The molecule is CCOC(=O)CC(C)C
135

Request: CCCC(C)COC(C)=O (configuration not stated)
163

Request: c1ccc(OP(Oc2ccccc2)Oc2ccccc2)cc1
360

Request: Cc1ccc(-c2cccc(C)c2)cc1
289

Request: CCc1ccc(Cc2ccccc2)cc1
297

Request: Cc1cccc(N(C)C)c1
212

Request: CC(C)CCCC(C)(C)C
149

Request: CCOC(=O)C(=O)C(=O)OCC
210

Request: CC(=O)CCC(=O)OCC(C)C
228

Request: C[Si](C)(C)[Si](C)(C)C
114

Request: CCCCCC(N)=O
255

Request: CCOC(=O)C(Cl)C(=O)OCC
222

Request: O=Cc1ccc2c(c1)OCO2
263

Request: CCCC[Si](C)(C)Cl
139

Request: COc1ccc(C(C)=O)cc1
258

Request: Cc1ccc2oc(C)nc2c1
218

Request: CCC[N+](=O)[O-]
131

Request: c1ccc2c(c1)Sc1ccccc1S2
365

Request: Cc1cc(C)oc(=O)c1
245

Request: CCB(Cl)CC
78.5

Request: O=[N+]([O-])c1ccccc1
211

Request: CCCCCCCCCCCCS
274

Request: Cc1cc([N+](=O)[O-])ccc1Cl
249

Request: CCCCCCCCCl
182

Request: Cc1ccc2cccc(C)c2c1
263

Request: CC(F)(Cl)Cl
32

Request: COC(C)C
30.7

Request: CCOB(OCC)OCC
120

Request: CC1=CCCC1
75.5

Request: O=c1occc2ccccc12
286

Request: CCCCCC(C)Br (configuration not stated)
166

Request: CCOC(=O)CCCCCCCC(=O)OCC
292
